src = PubChem BioAssay AID1159580

Please provide measured normalized growth for the entries that follow.
Assay: chemical genetic growth profiling, strain panel (AID 1159580);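 note: tested at 20 µM; growth read once vehicle control cultures reached saturation at 30 °C; 1 = growth at the plate median or of vehicle wells; lower values mean less growth of the strain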
Details: S. cerevisiae deletion strains, growth OD, locus YDL134C, strain PPH21, stronger effect = lower value
In all, about 5,500 compounds went through this assay and about 2,000 (36%) were called active. Inconclusive results (about 18%) are left out. This is one part of the list.
One number for each entry.

C[C@]12CCC(=O)C=C1CCC1C2CC[C@@]2(C)C1CC[C@@H]2O (stereo partly specified) : 1.03
OCC(O)C(O)C(O)CO (stereo unspecified) : 1.01
CC1=C(CC(=O)O)c2cc(F)ccc2/C1=C\c1ccc(S(C)=O)cc1 (stereo unspecified) : 0.999
CCOC(=O)C(=CNc1cccc(C#N)c1)C(=O)OCC : 0.994
COc1cc2c(cc1OC)C1C(=O)c3c(OC)cc4c(c3OC1CO2)CCC(C)(C)O4 (stereo unspecified) : 1.02

Then this compound:
Provide measured normalized growth value, entry: CCS(=O)CCSP(=O)(OC)OC (stereo unspecified)
1.01

###

Please provide measured normalized growth for the entries that follow.
Assay: chemical genetic growth profiling, strain panel (AID 1159580)
Conditions: S. cerevisiae deletion strains, growth OD, locus YDR388W, stronger effect = lower value
Hit rate of the full screen: of about 5,500 compounds, about 2,000 (36%) were called active. About 18% were inconclusive and are not listed. This is one part of the list.
Numbers only.

Some solved entries appear below for comparison.
ClC1=C(Cl)C2(Cl)C3C4C=CC(C4)C3C1(Cl)C2(Cl)Cl (stereo not drawn) : 0.985
COc1ccc2c(c1OC)C(=O)O[C@H]2[C@H]1c2cc3c(cc2CCN1C)OCO3 : 1.01
O=C1C=CC(=C(c2ccc(O)cc2)c2ccc(O)cc2)C=C1 : 0.972

Hi! Can you tell me normalized growth for each of these molecules?
1. CC1=C(CC(=O)O)c2cc(F)ccc2/C1=C\c1ccc(S(C)=O)cc1 (stereo not drawn)
2. CC1/C(=N\O)C[C@@H]2C[C@H]1C2(C)C (stereo partly drawn)
3. CNC(C)[C@H](O)c1ccccc1 (stereo partly drawn)

1.03
1.02
0.995

Hi! Can you tell me normalized growth for each of these molecules?
1. COc1ccc2c(C)cc(=O)oc2c1
2. CCC(=O)O[C@H]1CCC2C3CCC4=CC(=O)CC[C@]4(C)C3CC[C@@]21C (stereo partly drawn)

1.01
0.981

Hi! Can you tell me normalized growth for each of these molecules?
1. CN[C@@H](C)[C@@H](O)c1ccccc1
2. CC1CC2C3CCC4=CC(=O)C=C[C@]4(C)[C@@]3(F)[C@@H](O)C[C@]2(C)[C@@]1(O)C(=O)CO (stereo partly drawn)
3. COc1cc(NS(=O)(=O)c2ccc(N)cc2)nc(OC)n1
4. CN1CCC(=C2c3ccccc3Sc3ccccc32)CC1
5. CC(=O)c1c(O)c(C)c(O)c2c1oc1c(C(C)=O)c(O)c(C)c(O)c12
6. CC(C)OC(=O)C(C)(C)Oc1ccc(C(=O)c2ccc(Cl)cc2)cc1
7. CC(NCCc1ccc(O)cc1)C(O)c1ccc(O)cc1 (stereo not drawn)

1. 0.992
2. 0.968
3. 0.977
4. 0.955
5. 0.966
6. 0.983
7. 0.981

###

Assay: chemical genetic growth profiling, strain panel (AID 1159580)
Conditions: S. cerevisiae deletion strains, growth OD, locus YMR263W, strain SAP30, stronger effect = lower value
Out of some 5,500 compounds screened, about 2,000 (36%) were called active. Another 18% or so got no clear call; they are omitted. The list shows a part of the results.
parameter: normalized growth
Answers are plain numbers.

Hi! Can you tell me normalized growth for each of these molecules?
1. CC1=C(CC(=O)O)c2cc(F)ccc2/C1=C\c1ccc(S(C)=O)cc1 (stereo unspecified)
2. COc1cc2c(cc1OC)C(=O)OC2
3. Oc1ccc(C2CNCCc3c2cc(O)c(O)c3Cl)cc1 (stereo unspecified)
4. COP(=O)(OC)OC=C(Cl)Cl
5. CCC(NC(C)C)C(O)c1ccc(O)c(O)c1 (stereo unspecified)
6. CCS(=O)CCSP(=O)(OC)OC (stereo unspecified)

1.01
0.994
0.994
0.976
1.02
1.02

###

Assay: chemical genetic growth profiling, strain panel (AID 1159580);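 note: tested at 20 µM; growth read once vehicle control cultures reached saturation at 30 °C; 1 = growth at the plate median or of vehicle wells; lower values mean less growth of the strain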
Settings: S. cerevisiae deletion strains, growth OD, locus YHR129C, strain ARP1
The whole screen tested about 5,500 compounds, of which about 2,000 (36%) were called active. Roughly 18% stayed inconclusive and do not appear here. Cut-off read from the data, not from the text of the source: active = normalized growth mostly below about 0.91 (no sharp cut-off); inconclusive = no clear call, values can overlap the other calls; inactive = mostly above about 0.92. The list shows a part of the results.
Entry note: the call must match one of TRUE (active), FALSE (inactive)

c1ccc(N=Nc2ccccc2)cc1 : FALSE
C[C@]12CCC(=O)C=C1CCC1C2CC[C@@]2(C)C1CC[C@@H]2O (stereo not given in full) : FALSE
CCN(CC)CCCC(C)Nc1c2ccc(Cl)cc2nc2ccc(OC)cc12 (stereo not given) : TRUE

Please let me know the test result on file for CC1=C(CC(=O)O)c2cc(F)ccc2/C1=C\c1ccc(S(C)=O)cc1 (stereo not given) .
FALSE

Please let me know the test result on file for COc1cc2c(cc1OC)C(=O)OC2 .
FALSE

Please let me know the test result on file for C[N+](C)(C)CCOC(N)=O .
FALSE

Please let me know the test result on file for CN1CCCN=C1COC(=O)C(O)(c1ccccc1)C1CCCCC1 (stereo not given) .
FALSE

###

Assay: chemical genetic growth profiling, strain panel (AID 1159580);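 note: tested at 20 µM; growth read once vehicle control cultures reached saturation at 30 °C; 1 = growth at the plate median or of vehicle wells; lower values mean less growth of the strain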
Details: S. cerevisiae deletion strains, growth OD, locus YPL078C, strain atp4, stronger effect = lower value
Out of some 5,500 compounds screened, about 2,000 (36%) were called active. Roughly 18% stayed inconclusive and do not appear here. The list shows a part of the results.
parameter: normalized growth
One number for each entry.

CCN(CCO)CCCC(C)Nc1ccnc2cc(Cl)ccc12 (stereo unspecified) : 1.01

Hi! Can you tell me normalized growth for each of these compounds?
1. COc1cc2c(cc1OC)Cc1cc(OC)c(OC)cc1Cc1cc(OC)c(OC)cc1C2
2. COc1cc(NS(=O)(=O)c2ccc(N)cc2)nc(OC)n1
3. COc1ccc2c3c1O[C@H]1C[C@@H](O)C=C[C@@]31CCN(C)C2
4. N=c1ccn2c(n1)O[C@@H]1C2O[C@H](CO)[C@H]1O (stereo partly specified)
5. CC(=O)OCC(=O)[C@@]1(O)CCC2C3CCC4=CC(=O)CC[C@]4(C)C3C(=O)C[C@@]21C (stereo partly specified)
6. ClC1=C(Cl)C2(Cl)C3C(Cl)C=CC3C1(Cl)C2(Cl)Cl (stereo unspecified)
7. COc1cc2c(cc1OC)C(=O)OC2

1.03
0.965
1
1.01
0.933
1
1.01

Hi! Can you tell me normalized growth for each of these compounds?
1. COc1cc2c(cc1OC)[C@@H]1C(=O)c3ccc(OC)c(CC=C(C)C)c3O[C@@H]1CO2
2. O=C(O)C1(O)C[C@@H](O)C(O)[C@H](O)C1 (stereo partly specified)
3. S=c1nc[nH]c2nc[nH]c12

1: 1.03; 2: 0.982; 3: 0.997

###

Assay: chemical genetic growth profiling, strain panel (AID 1159580);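 note: tested at 20 µM; growth read once vehicle control cultures reached saturation at 30 °C; 1 = growth at the plate median or of vehicle wells; lower values mean less growth of the strain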
Settings: S. cerevisiae deletion strains, growth OD, locus YJL164C, strain tpk1, stronger effect = lower value
In all, about 5,500 compounds went through this assay and about 2,000 (36%) were called active. Roughly 18% stayed inconclusive and do not appear here. The list shows a part of the results.
Please provide measured normalized growth for the entries that follow.
One number for each entry.

Hi! Can you tell me normalized growth for each of these compounds?
1. CN1CCC(=C2c3ccccc3CC(=O)c3sccc32)CC1
2. CCCCNc1cc(C(=O)O)cc(S(N)(=O)=O)c1Oc1ccccc1
3. C[N+](C)(C)CCOC(N)=O

1.02
1.01
1.01

Hi! Can you tell me normalized growth for each of these compounds?
1. O=C(O)c1cc2ccccc2[nH]1
2. COc1cc(NS(=O)(=O)c2ccc(N)cc2)nc(OC)n1

1
1

Hi! Can you tell me normalized growth for each of these compounds?
1. CC(Oc1ccccc1)C(=O)N[C@@H]1C(=O)N2[C@@H]1SC(C)(C)[C@@H]2C(=O)O (some centres undefined)
2. O=C(O)c1cc2ccccc2c(Cc2c(O)c(C(=O)O)cc3ccccc23)c1O
3. c1cncc(C2CCCCN2)c1 (centres undefined)
4. S=c1nc[nH]c2nc[nH]c12
5. CCN(CC)CCCC(C)Nc1c2ccc(Cl)cc2nc2ccc(OC)cc12 (centres undefined)
6. NCCSSCCN
7. COc1ccc2cc([C@H](C)C(=O)O)ccc2c1
8. COc1ccc2c3c1O[C@H]1C[C@@H](O)C=C[C@@]31CCN(C)C2

0.999
0.99
0.998
0.988
0.911
1.01
0.967
1

Hi! Can you tell me normalized growth for each of these compounds?
1. COc1cc2c(cc1OC)[C@@H]1C(=O)c3ccc4oc(C(C)C)cc4c3O[C@@H]1CO2
2. CN(C)C(=S)SSC(=S)N(C)C
3. COc1ccc2c(c1)O[C@@H]1COc3cc(OC)c(OC)cc3[C@@H]1C2=O
4. CCOC(=O)[C@H](CCc1ccccc1)N[C@H]1CCc2ccccc2N(CC(=O)O)C1=O
5. CCOC(=O)C(C)(C)Oc1ccc(Cl)cc1
6. CN1CCc2cc3c(cc2[C@H]1C1OC(=O)c2c1ccc1c2OCO1)OCO3 (some centres undefined)
7. C=Cc1c2[nH]c(c1C)C=c1[nH]c(c(C)c1C=C)=CC1N=C(C=c3[nH]c(c(C)c3CCC(=O)O)=C2)C(CCC(=O)O)=C1C (centres undefined)
8. CC(C[N+](C)(C)C)OC(N)=O (centres undefined)

[1.03, 0.0632, 0.438, 0.97, 0.985, 1.01, 0.968, 1.03]
